Quick reference for self-splicing fitness (ln) among some sequences
Assay: self-splicing fitness, log relative to wild type (ln ratio); higher = more splicing; Tetrahymena group I intron in knt gene, E. coli kanamycin selection, DiMSum; sequences stand for … in CUCUCU…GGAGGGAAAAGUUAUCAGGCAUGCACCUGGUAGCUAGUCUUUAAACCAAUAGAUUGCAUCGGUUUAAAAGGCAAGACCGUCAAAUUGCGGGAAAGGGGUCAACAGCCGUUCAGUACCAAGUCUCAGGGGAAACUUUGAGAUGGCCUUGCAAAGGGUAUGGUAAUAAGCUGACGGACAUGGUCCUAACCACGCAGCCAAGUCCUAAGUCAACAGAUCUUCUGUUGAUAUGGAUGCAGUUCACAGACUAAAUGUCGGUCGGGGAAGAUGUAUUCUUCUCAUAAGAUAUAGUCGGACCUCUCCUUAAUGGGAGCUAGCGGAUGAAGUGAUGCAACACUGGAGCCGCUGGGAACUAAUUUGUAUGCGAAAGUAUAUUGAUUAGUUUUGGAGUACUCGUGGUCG;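 note: selection with 25 µg/mL kanamycin versus none on LB agar overnight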
Details: 30 °C

{"columns": ["MONOMER_SEQUENCE", "self-splicing fitness (ln)"],
 "data": [
  ["AGUUAGCAAUAUUACGUGGU", -3.34],
  ["UUCUAGCAAUAUUACGGGCA", -0.323],
  ["AUGGAGCAAUAUUACGCCGA", -2.82],
  ["UUGCAGCAAUAUUACGUUAC", -2.77],
  ["CAUAAGCAAUAUUACGAGGC", -3.54]
]}

Dear colleague, please send me the reported self-splicing fitness (ln) for `ACUGAGCAAUAUUACGGACU` when you can. -1.08

Dear colleague, please send me the reported self-splicing fitness (ln) for `GAAGAGCAAUAUUACGGGUC` when you can. -1.86

Dear colleague, please send me the reported self-splicing fitness (ln) for `UUACAGCAAUAUUACGCAUC` when you can. -3.36

----------
Assay: self-splicing fitness, log relative to wild type (ln ratio); higher = more splicing; Tetrahymena group I intron in knt gene, E. coli kanamycin selection, DiMSum; sequences stand for … in CUCUCU…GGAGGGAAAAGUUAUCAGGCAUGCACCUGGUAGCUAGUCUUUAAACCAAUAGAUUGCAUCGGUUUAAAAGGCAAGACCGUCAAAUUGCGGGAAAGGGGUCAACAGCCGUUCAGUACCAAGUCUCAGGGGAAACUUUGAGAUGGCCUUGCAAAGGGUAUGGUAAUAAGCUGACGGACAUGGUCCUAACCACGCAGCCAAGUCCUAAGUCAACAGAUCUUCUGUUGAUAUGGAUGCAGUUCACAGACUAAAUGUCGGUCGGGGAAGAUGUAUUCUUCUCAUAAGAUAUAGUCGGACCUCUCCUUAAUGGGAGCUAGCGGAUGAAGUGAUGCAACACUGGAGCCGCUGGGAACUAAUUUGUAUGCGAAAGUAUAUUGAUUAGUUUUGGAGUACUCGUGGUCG
Conditions: 37 °C
READOUT_LABEL: self-splicing fitness (ln)
Output spec: single numeric token, no unit.

{"columns": ["MONOMER_SEQUENCE", "self-splicing fitness (ln)"],
 "data": [
  ["GUGCAGCAAUAUUACGAUAC", -0.0479],
  ["ACAUAGCAAUAUUACGCCUC", -1.29],
  ["UGUUAGCAAUAUUACGACGG", -0.218]
]}

As a next step, examine the sequence that follows.
Dear colleague, please send me the reported self-splicing fitness (ln) for `UUUCAGCAAUAUUACGUAGG` when you can. -0.741
